Molecular target: ALDH2*2 (Homo sapiens, UniProt P05091, E504K)
Construct: made in house; host or cells: E. coli
Sequence (P05091 18-517 E504K): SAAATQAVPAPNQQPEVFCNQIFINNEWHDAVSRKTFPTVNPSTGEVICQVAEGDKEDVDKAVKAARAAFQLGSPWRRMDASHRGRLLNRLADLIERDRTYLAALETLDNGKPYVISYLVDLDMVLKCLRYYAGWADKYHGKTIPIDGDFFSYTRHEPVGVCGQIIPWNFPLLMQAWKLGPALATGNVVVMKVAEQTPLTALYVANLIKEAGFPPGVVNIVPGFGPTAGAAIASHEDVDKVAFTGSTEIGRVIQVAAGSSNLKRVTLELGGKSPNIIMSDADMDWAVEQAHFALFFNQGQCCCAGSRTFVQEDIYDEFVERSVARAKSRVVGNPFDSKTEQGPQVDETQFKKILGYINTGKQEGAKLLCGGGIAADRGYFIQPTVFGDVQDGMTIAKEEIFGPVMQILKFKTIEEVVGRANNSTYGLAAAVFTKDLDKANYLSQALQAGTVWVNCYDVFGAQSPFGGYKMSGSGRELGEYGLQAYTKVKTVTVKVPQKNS
Experiment: Esterase activity assay (p-nitrophenylacetate hydrolysis)
Format: biochemical
Details: with Alda-1; read-out: half-maximal activating concentration of NAD+ for the esterase reaction in presence of Alda-1 (lowered from 7.5 mM)
Experimental Readout: pEC50
Quick note: pEC50 values are minus log10 of concentrations in mol/L.

I am curious: what pEC50 value has been reported for O=C(NCc1ccc2c(c1)OCO2)c1c(Cl)cccc1Cl ?
2.55

###

target: wild-type ALDH2 (Homo sapiens); construct: made in house; host or cells: E. coli; assay: Esterase activity assay (p-nitrophenylacetate hydrolysis); type: biochemical; conditions: no NAD+; 0.97 mM p-Nitrophenylacetate; read-out: KAct^(app)
Experimental Readout: EC50

I am curious: what EC50 value has been reported for O=C(NCc1ccc2c(c1)OCO2)c1c(Cl)cccc1Cl ?
3.4 µM

###

molecular target: ALDH2*2 (Homo sapiens, UniProt P05091, E504K); construct: made in house; host or cells: E. coli; assay: Esterase activity assay (p-nitrophenylacetate hydrolysis); format: biochemical; details: 1.0 mM NAD+; 0.97 mM p-Nitrophenylacetate; read-out: KAct^(app)
Experimental Readout: pEC50
Quick note: pEC50 values are minus log10 of concentrations in mol/L.

I am curious: what pEC50 value has been reported for O=C(NCc1ccc2c(c1)OCO2)c1c(Cl)cccc1Cl [Alda-1] ?
4.95

###

biological target: ALDH2*2 (Homo sapiens, UniProt P05091, E504K); construct: made in house; host or cells: E. coli; test: Dehydrogenase activity kinetic assay (25 mM BES, pH 7.5); format: biochemical; conditions: covariation NAD+ (0.5-10 mM) and Alda-1 (0 to 30 μM); non-essential activator fit; read-out: Kact
Experimental Readout: EC50 (µM)
All answers are understood in µM, so give the number only.

I am curious: what EC50 value has been reported for O=C(NCc1ccc2c(c1)OCO2)c1c(Cl)cccc1Cl ?
16

###

target: ALDH2*2 (Homo sapiens, UniProt P05091, E504K); construct: made in house; host or cells: E. coli; test: Esterase activity assay (p-nitrophenylacetate hydrolysis); format: biochemical; conditions: no NAD+; 0.97 mM p-Nitrophenylacetate; read-out: KAct^(app)
Experimental Readout: EC50

I am curious: what EC50 value has been reported for O=C(NCc1ccc2c(c1)OCO2)c1c(Cl)cccc1Cl [Alda-1] ?
16.1 µM

Where do these numbers come from? They come from patent US8124389B2.
